Attribute: composite z-score
- Tested on: Noggin (protein binding on small-molecule microarray)
- PROTOCOL DETAILS: Noggin binders on small-molecule microarray, primary screen, biochemical, 635/667 nm fluorescence (AID 1095);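 note: score merges 667 nm feature fluorescence with signal to noise over triplicate slides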
- RECORDED CONDITIONS: 635 nm fluorescence, higher = more signal
The answer should be a number; do not append a unit.

Some solved cases for reference:
COMPOUND	composite z-score
CC(C)CN1C(=O)[C@@]2(Cc3ccccc31)c1ccccc1C(=O)N(Cc1ccccc1C(F)(F)F)[C@H]2c1ccc(CO)cc1	-0.0224
CON(C)C(=O)C=C1C[C@@H](c2cccc(Cl)c2)O[C@@H](c2cccc(Cl)c2)O1	0.407
NCCCCCNC(=O)[C@@H]1C[C@@H]2C(=O)N[C@@H](CCCCN)C(=O)N2[C@@H]1c1cccc(OCCO)c1	0.878
COCCOC(=O)N1C(=O)[C@@]2(c3cc(C#Cc4ccc(OC)cc4)ccc31)[C@H](C(=O)N1CCCCCCC1)[C@H]1C(=O)O[C@H](c3ccccc3)[C@H](c3ccccc3)N1[C@@H]2c1ccc(O)cc1	0.674
C[C@H]1C2=C3C(CC[C@H]4C(OCc5ccc(F)cc5C(F)(F)F)OC[C@](C)([C@@H]34)N(C(=O)OC(C)(C)C)C2)C2COC(=O)OCC21 (stereo partly drawn)	-0.618

Provide composite z-score, tested on Noggin (protein binding on small-molecule microarray), for "COc1ccc(C#Cc2ccc3c(c2)[C@]2(C(=O)N3)[C@H](C(=O)N3CCc4cc(OC)c(OC)cc4C3)[C@H]3C(=O)O[C@H](c4ccccc4)[C@H](c4ccccc4)N3[C@@H]2c2ccc(O)cc2)cc1" . 0.875

Provide composite z-score, tested on Noggin (protein binding on small-molecule microarray), for "CO[C@H]1O[C@H](CO)[C@@H](OC(=O)c2ccc(Br)cc2)[C@@H]2OC(=O)[C@@H](Cc3ccc4ccccc4c3)C/C=C/C[C@H](Cc3ccc4ccccc4c3)C(=O)O[C@@H]12" . 0.0104

Provide composite z-score, tested on Noggin (protein binding on small-molecule microarray), for "Cc1ccc(S[C@]2(C(=O)NC(C)C)CC(=O)N(C3Cc4ccccc4C3)[C@@H]2c2ccc(CO)cc2I)cc1" . -0.0975

Provide composite z-score, tested on Noggin (protein binding on small-molecule microarray), for "C=CCN1Cc2ccccc2C[C@@]2(N=C(c3ccc(OCCCO)cc3)O[C@H]2c2ccccc2)C1=O" . 1.04

Provide composite z-score, tested on Noggin (protein binding on small-molecule microarray), for "Cc1ccc(S[C@]2(C(=O)NCC(F)(F)F)CC(=O)N(Cc3ccccc3)[C@@H]2c2ccc(CO)cc2)cc1" . -0.92

Provide composite z-score, tested on Noggin (protein binding on small-molecule microarray), for "COc1ccc([Si](C)(C)[C@@H]2[C@@H](CCO)O[C@]3(C(=O)N(Cc4cccc(N5C(=O)c6ccccc6Oc6ccccc65)c4)c4ccccc43)[C@H]2C)cc1" . -0.224

Provide composite z-score, tested on Noggin (protein binding on small-molecule microarray), for "CCOC(=O)C[C@H]1[C@H](OC(=O)c2ccccc2-c2ccccc2)[C@@H](NC(=O)c2ccc3ccccc3n2)c2cc(OCCCO)ccc2N1C(=O)c1ccc2ccccc2n1" . 0.283

Provide composite z-score, tested on Noggin (protein binding on small-molecule microarray), for "COCCOC(=O)N1C(=O)[C@@]2(c3cc(C#CCNC(N)=O)ccc31)[C@H](C(=O)N1CCCCCCC1)[C@H]1C(=O)O[C@H](c3ccccc3)[C@H](c3ccccc3)N1[C@@H]2c1ccc(O)cc1" . 1.46
